molecular target: cyno IL13 (cynomolgus monkey, UniProt Q0PW92 21-132); experiment: cell-based or functional assay
Sequence (Q0PW92 entry or part of it): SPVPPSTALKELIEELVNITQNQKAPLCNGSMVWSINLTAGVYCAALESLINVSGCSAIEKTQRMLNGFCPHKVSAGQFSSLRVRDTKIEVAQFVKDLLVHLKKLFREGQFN
This listing pairs binders with measured Cyno IL13 STAT6 IC50.
Provide the reading as a plain figure in nM.

binder	unit tag	Cyno IL13 STAT6 IC50
5H7 (designed binder, N-Cap-(AR)3-C-Cap) DLGKKLLEAARAGQDDEVRILMANGADVNAADMYGTTPQHLAARTGHLEIVEVLLKYGADVNAADFLGDTPLHLAAYHGHLEIVEVLLKHGADVNASDITGETPLHLAAHLGHLEIVEVLLKYGADVNAQDKFGKTAFDISIDNGNEDLAEILQKLN	nM	0.527
7C6 (designed binder, N-Cap-(AR)3-C-Cap) DLGKKLLEAARAGQDDEVRILMANGADVNAMDKYGSTPLHLAARSGHLEIVEVLLKHGADVNATDFIGDTPLHLAAYHGHLEIVEVLLKHGADVNAEDITGETPLHLAAESGHLEIVEVLLKHGADVNAQDKFGKTAFDISIDNGNEDLAEILQKLN	nM	0.048
6D4 (designed binder, N-Cap-(AR)3-C-Cap) DLGKKLLEAARAGQDDEVRILMANGADVNAADDYGSTPLHLAARSGHLEIVEVLLKHGADVNANDFIGDTPLHLAAYNGHLEIVEVLLKNGADVNATDITGETPLHLAAERGHLEIVEVLLKNGADVNTQDKFGKTAFDISIDNGNEDLAEILQKLN	nM	0.0513
7G11 (designed binder, ankyrin repeat protein) DLGKKLLEAARAGQDDEVRILMANGADVNATDEFDSTPLHLAARHGHLEIVEVLLKYGADVNAADFIGDTPLHLAAYRGHLEIVEVLLKCGVDVNADDHGDTPLHLAASMGHLEIVEVLLKNGADVNAQDKFGKTAFDISIDNGNEDLAEILQKLN	nM	0.098

Now let's try a different one.
// query Cyno IL13 STAT6 IC50 value for entry 6G11 (designed binder, N-Cap-(AR)3-C-Cap) DLGKKLLEAARAGQDDEVRILMANGADVNAEDILGITPLHLAAHHGHLEIVEVLLKHGADVNANDFAGYTPLHLAAVYGHLEIVEVLLKYGADVNATDAWGETPLHLAAYTGHLEIVEVLLKHDADVNAQDKFGKTAFDISIDNGNEDLAEILQKLN 1.21
